Recorded measurements of inhibition, one per entry
# test-system: N-glycosylase/DNA lyase (Homo sapiens) (UniProt O15527)
# Sequence (O15527 whole entry): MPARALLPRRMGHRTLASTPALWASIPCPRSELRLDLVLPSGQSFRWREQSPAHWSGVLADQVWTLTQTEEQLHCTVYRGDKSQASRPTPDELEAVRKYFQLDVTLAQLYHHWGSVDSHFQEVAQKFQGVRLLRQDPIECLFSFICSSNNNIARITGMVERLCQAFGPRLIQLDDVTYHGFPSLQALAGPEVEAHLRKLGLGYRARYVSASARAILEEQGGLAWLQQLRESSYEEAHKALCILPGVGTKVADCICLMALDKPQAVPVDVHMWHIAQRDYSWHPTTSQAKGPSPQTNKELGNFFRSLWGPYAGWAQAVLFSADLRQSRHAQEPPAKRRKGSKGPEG
# cond: Compound Concentration 10.0 uM, Hit No
# Description: Inhibition of OGG1 by quantifying inhibition of OGG1-mediated cleavage and dissociation of quenched duplex DNA oligonucleotides, measured as fluorescence at 594 nm. To generate a functional strand incision and increase turn-over this assay is coupled to APE1.
Only the number, expressed in %, is required.

Past entries and their recorded results:
smiles	test-system	measured
CN1CCc2cc(Cl)c(O)cc2[C@@H](c2ccccc2)C1	N-glycosylase/DNA lyase (Homo sapiens) (UniProt O15527)	-2.12
COc1nc2ccc([C@@](O)(c3ccccc3)C3CCN(C(C)=O)CC3)cc2c(Cl)c1Cc1ccc(-n2cccn2)cc1	N-glycosylase/DNA lyase (Homo sapiens) (UniProt O15527)	10.5

QUERY: So what does the record say about inhibition for Cn1cc(Nc2nccc(N3CC4CCC(C3)N4C(=O)[C@@H]3CC3(F)F)n2)cn1 ?
RESULT: -0.945

QUERY: So what does the record say about inhibition for CC(=O)Nc1ncc(CN2CCC[C@H](Cc3cc(C)nc(C)c3)C2)s1 ?
RESULT: 2.54

QUERY: So what does the record say about inhibition for O=C1NCCc2c(OCCCCN3CCCCC3)cccc21 ?
RESULT: -7.4

QUERY: So what does the record say about inhibition for CC1(C)CC(=O)c2c(SCCO)sc(-c3nccs3)c2C1 ?
RESULT: -7.89

###

# test-system: DNA-3-methyladenine glycosylase (Homo sapiens)
# cond: Compound Concentration 10.0 uM, Hit No
# Description: Inhibition of MPG by quantifying inhibition of MPG-mediated cleavage and dissociation of quenched duplex DNA oligonucleotides, measured as fluorescence at 594 nm. To generate a functional strand incision and increase turn-over this assay is coupled to APE1.
Recorded measurements of inhibition, one per entry
Only the number, expressed in %, is required.

Past entries and their recorded results:
compound	quantity	measured
CC(C)(C)C1CCc2c(sc(NC(=O)c3ccco3)c2C(=O)O)C1 (stereo not drawn)	inhibition	-0.565
CCOC(=O)C1=C[C@]2(CC)CCCN3CCc4c(n1c1ccccc41)[C@@H]32	inhibition	-4.56
CC(C)c1noc(N2CCC(COc3ccc(-c4ccc(S(C)(=O)=O)cc4)nc3)CC2)n1	inhibition	-8.23
COC[C@H](O)Cn1c(=O)cnn(-c2ccc(Cl)c(C(=O)NCC3(O)CCCCCC3)c2)c1=O	inhibition	19.8
COc1cc(N)c(Cl)cc1C(=O)NC1CN2CCC1CC2 (stereo not drawn)	inhibition	-7.22

QUERY: So what does the record say about inhibition for CN(Cc1cccc(F)c1CNc1cc(F)c(S(=O)(=O)Nc2cscn2)c(F)c1)C(C)(C)C ?
RESULT: 20.1

QUERY: So what does the record say about inhibition for N#Cc1ccc(NC(=O)Nc2ccccc2Br)c2nn[nH]c12 ?
RESULT: -2.94

QUERY: So what does the record say about inhibition for CCOC(=O)N[C@@H]1CC[C@@H]2[C@@H](C1)C[C@H]1C(=O)O[C@H](C)[C@H]1[C@H]2/C=C/c1ccc(-c2cccc(F)c2)cn1 ?
RESULT: -7.15

QUERY: So what does the record say about inhibition for COC(=O)c1cc2c(cn1)[nH]c1ccccc12 ?
RESULT: 11.4

QUERY: So what does the record say about inhibition for CCCCCNC(=O)NS(=O)(=O)c1cc([N+](=O)[O-])ccc1NC1CCCCC1 ?
RESULT: 19.1

QUERY: So what does the record say about inhibition for CS(=O)(=O)c1cccc(NC(=O)N(Cc2ccc(C(=O)Nc3nnn[nH]3)cc2)c2ccc(C3CCCCC3)cc2)c1 ?
RESULT: 26.7

###

# test-system: N-glycosylase/DNA lyase (Homo sapiens) (UniProt O15527);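 also: OGG1 cleavage of a quenched duplex DNA oligonucleotide, coupled to APE1 for strand incision, read as fluorescence at 594 nm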
# cond: Compound Concentration 10.0 uM, Hit No
quantity: inhibition
Reply with the number, then its unit.

Past entries and their recorded results:
compound	test-system	measured
COCCOCCn1nc2c(c1C)-c1c(Cl)ccc3c1c(C)c(C(=O)O)n3CCCOc1cc(cc3c(F)c(Cl)ccc13)CCc1cc(nn1C)CSC2	N-glycosylase/DNA lyase (Homo sapiens) (UniProt O15527)	28.8%
CCOc1nc2cccc(C(=O)O)c2n1Cc1ccc(-c2ccccc2-c2nnn[nH]2)cc1	N-glycosylase/DNA lyase (Homo sapiens) (UniProt O15527)	0.813%
COc1ccc(-n2nc3c4ccccc4[nH]cc-3c2=O)cc1	N-glycosylase/DNA lyase (Homo sapiens) (UniProt O15527)	-8.16%
CCn1c(=O)c(C)cn(Cc2nnc(-c3ccc(F)c(O)c3F)s2)c1=O	N-glycosylase/DNA lyase (Homo sapiens) (UniProt O15527)	-4.39%
C[S+]([O-])c1ccc(-c2nc(-c3ccc(F)cc3)c(-c3ccncc3)[nH]2)cc1 (stereo not drawn)	N-glycosylase/DNA lyase (Homo sapiens) (UniProt O15527)	6.37%
COc1cc2c(cc1CC=C(C)C)C(=O)C[C@@H](c1ccc(O)cc1)O2	N-glycosylase/DNA lyase (Homo sapiens) (UniProt O15527)	19.1%

QUERY: So what does the record say about inhibition for CC[C@H](CC(=O)O)n1c(=O)c2ncccc2n(Cc2cn(C)c3cc(C)cc(C)c23)c1=O ?
RESULT: 0.279%

Cited source for all entries: ChEMBL document CHEMBL5665443
